Molecular target: AC1 (Homo sapiens)
Sequence (Q08828 whole entry): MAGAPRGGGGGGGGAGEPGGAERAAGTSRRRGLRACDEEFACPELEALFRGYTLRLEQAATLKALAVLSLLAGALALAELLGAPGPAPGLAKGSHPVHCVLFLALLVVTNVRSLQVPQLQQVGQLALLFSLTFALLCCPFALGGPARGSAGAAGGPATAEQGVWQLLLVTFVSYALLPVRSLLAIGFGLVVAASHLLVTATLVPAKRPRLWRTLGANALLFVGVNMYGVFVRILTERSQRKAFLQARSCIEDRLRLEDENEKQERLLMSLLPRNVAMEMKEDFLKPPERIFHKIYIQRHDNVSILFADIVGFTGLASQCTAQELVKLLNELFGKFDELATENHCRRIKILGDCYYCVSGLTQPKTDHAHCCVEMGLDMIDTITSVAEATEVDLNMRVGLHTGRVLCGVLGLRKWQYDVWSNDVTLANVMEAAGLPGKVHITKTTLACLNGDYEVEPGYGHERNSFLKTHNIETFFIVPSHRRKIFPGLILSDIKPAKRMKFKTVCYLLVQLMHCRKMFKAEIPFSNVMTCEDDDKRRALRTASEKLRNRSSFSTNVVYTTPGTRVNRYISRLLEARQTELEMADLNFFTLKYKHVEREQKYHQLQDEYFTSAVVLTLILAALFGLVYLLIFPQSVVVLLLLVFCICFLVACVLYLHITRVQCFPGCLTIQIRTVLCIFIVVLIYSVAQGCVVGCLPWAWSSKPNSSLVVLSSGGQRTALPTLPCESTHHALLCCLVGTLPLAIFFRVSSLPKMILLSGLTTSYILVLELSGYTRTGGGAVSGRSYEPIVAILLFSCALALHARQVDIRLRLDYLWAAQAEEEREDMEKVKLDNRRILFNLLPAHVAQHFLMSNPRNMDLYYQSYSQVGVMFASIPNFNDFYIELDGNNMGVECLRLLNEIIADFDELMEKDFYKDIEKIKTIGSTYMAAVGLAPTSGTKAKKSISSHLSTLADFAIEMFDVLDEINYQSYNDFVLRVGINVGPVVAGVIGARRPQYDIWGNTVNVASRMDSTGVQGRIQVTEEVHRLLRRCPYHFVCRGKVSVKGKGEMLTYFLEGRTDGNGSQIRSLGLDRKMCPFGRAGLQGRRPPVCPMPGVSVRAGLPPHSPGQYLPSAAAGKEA
Test: CaM-stimulated AC1 activity in membrane preparations

[
  {
    "compound": "CCCCCCCCCCCCCCCC[N+](C)(C)C [cetrimonium, cetrimonium bromide]",
    "measurement-unit": "µM",
    "IC50": 39.8
  }
]

###

Molecular target: UniProtKB P40145
Test: CaM-stimulated AC8 activity in membrane preparations
IC50 values for the compounds below.

[
  {
    "compound": "CCCCCCCCCCCCCCCC[N+](C)(C)C [cetrimonium, cetrimonium bromide]",
    "IC50, µM": 22.4
  },
  {
    "compound": "CCCCCCCCCCCC[N+](C)(C)CCOc1ccccc1 [domiphen, Domiphen bromide]",
    "IC50, µM": 17.4
  },
  {
    "compound": "CCCCC(CC)CNC(=N)NC(=N)NCCCCCCNC(=N)NC(=N)NCC(CC)CCCC (stereo not drawn) [alexidine]",
    "IC50, µM": 4.9
  },
  {
    "compound": "CCCCCCCCOc1ccccc1C(=O)Nc1ccc(C(=O)OCC[N+](C)(CC)CC)cc1 [otilonium, otilonium bromide]",
    "IC50, µM": 24
  },
  {
    "compound": "Clc1ccc(C(c2ccc(Cl)cc2)n2cc[n+](CC(OCc3ccc(Cl)cc3Cl)c3ccc(Cl)cc3Cl)c2)cc1 (stereo not drawn) [CDZ, calmidazolium chloride]",
    "IC50, µM": 4.68
  },
  {
    "compound": "CCCCCCCCCCCCCCCC[N+](C)(C)CCN(Cc1ccc(OC)cc1)c1ncccn1 [thonzonium, Thonzonium bromide]",
    "IC50, µM": 38.9
  }
]

###

Target: CaM/AC8-Nt interaction (Homo sapiens, UniProt P0DP23)
Experiment: Fluorescence polarization
Type: binding
Conditions: AC8-Nt pIC50, 0.01% Triton, FP, 0.01% Triton X-100
The threshold is 10 µM. Values of IC50 beneath it are tagged true; values meeting or exceeding it are tagged false.

[
  {
    "molecule": "CCCCCCCCCCCCCCCC[N+](C)(C)C [cetrimonium, cetrimonium bromide]",
    "cat": "false"
  },
  {
    "molecule": "CCCCCCCCCCCC[N+](C)(C)CCOc1ccccc1 [domiphen, Domiphen bromide]",
    "cat": "false"
  },
  {
    "molecule": "CCCCCCCCOc1ccccc1C(=O)Nc1ccc(C(=O)OCC[N+](C)(CC)CC)cc1 [otilonium, otilonium bromide]",
    "cat": "false"
  },
  {
    "molecule": "CCCCCCCCCCCCCCCC[N+](C)(C)CCN(Cc1ccc(OC)cc1)c1ncccn1 [thonzonium, Thonzonium bromide]",
    "cat": "true"
  },
  {
    "molecule": "Clc1ccc(C(c2ccc(Cl)cc2)n2cc[n+](CC(OCc3ccc(Cl)cc3Cl)c3ccc(Cl)cc3Cl)c2)cc1 (stereo not drawn) [CDZ, calmidazolium chloride]",
    "cat": "true"
  },
  {
    "molecule": "CCCCC(CC)CNC(=N)NC(=N)NCCCCCCNC(=N)NC(=N)NCC(CC)CCCC (stereo not drawn)",
    "cat": "true"
  }
]

###

Target: AC8 (Homo sapiens)
Sequence (P40145 whole entry): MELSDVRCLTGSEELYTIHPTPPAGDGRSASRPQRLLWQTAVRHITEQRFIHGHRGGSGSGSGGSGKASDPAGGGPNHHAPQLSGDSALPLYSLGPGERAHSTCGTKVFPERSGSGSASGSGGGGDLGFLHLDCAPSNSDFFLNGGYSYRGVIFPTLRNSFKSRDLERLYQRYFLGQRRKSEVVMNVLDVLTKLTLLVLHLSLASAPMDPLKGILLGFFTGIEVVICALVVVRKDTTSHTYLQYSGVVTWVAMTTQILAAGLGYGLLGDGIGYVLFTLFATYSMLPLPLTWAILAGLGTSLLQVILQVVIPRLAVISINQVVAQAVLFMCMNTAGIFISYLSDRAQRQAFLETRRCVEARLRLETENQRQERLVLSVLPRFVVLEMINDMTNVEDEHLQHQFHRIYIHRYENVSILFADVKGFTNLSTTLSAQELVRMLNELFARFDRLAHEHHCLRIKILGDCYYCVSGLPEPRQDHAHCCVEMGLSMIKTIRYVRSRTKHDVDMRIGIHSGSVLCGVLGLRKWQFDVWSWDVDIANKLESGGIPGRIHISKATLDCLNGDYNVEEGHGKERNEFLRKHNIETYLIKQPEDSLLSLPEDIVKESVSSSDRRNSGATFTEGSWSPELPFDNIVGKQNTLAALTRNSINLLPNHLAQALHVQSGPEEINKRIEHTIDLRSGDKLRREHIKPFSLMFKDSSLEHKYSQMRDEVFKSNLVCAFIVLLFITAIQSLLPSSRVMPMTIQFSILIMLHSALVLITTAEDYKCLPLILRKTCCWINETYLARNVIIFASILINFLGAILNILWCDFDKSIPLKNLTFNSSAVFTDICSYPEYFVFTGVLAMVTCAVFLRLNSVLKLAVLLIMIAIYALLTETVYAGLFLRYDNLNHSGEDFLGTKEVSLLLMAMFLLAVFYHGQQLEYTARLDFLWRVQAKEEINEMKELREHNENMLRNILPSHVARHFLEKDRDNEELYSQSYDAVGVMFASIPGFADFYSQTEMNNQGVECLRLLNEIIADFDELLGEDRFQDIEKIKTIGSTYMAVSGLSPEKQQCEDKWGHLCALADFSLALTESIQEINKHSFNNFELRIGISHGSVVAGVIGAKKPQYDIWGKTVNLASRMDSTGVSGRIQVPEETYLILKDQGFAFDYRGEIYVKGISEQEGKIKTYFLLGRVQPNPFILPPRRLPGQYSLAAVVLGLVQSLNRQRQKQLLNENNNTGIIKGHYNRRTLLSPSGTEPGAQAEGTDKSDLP
Experiment: CaM-stimulated AC8 activity in membrane preparations
Format: biochemical
Conditions: read-out: AC8 % inhibition

[
  {
    "compound": "CCCCCCCCCCCC[N+](C)(C)CCOc1ccccc1 [domiphen, Domiphen bromide]",
    "inhibition at 100 µM / %": 104
  },
  {
    "compound": "CCCCCCCCOc1ccccc1C(=O)Nc1ccc(C(=O)OCC[N+](C)(CC)CC)cc1 [otilonium, otilonium bromide]",
    "inhibition at 100 µM / %": 99
  },
  {
    "compound": "CCCCCCCCCCCCCCCC[N+](C)(C)C [cetrimonium, cetrimonium bromide]",
    "inhibition at 100 µM / %": 102
  },
  {
    "compound": "CCCCCCCCCCCCCCCC[N+](C)(C)CCN(Cc1ccc(OC)cc1)c1ncccn1 [thonzonium, Thonzonium bromide]",
    "inhibition at 100 µM / %": 91
  },
  {
    "compound": "CCCCC(CC)CNC(=N)NC(=N)NCCCCCCNC(=N)NC(=N)NCC(CC)CCCC (stereo not drawn)",
    "inhibition at 100 µM / %": 106
  },
  {
    "compound": "Clc1ccc(C(c2ccc(Cl)cc2)n2cc[n+](CC(OCc3ccc(Cl)cc3Cl)c3ccc(Cl)cc3Cl)c2)cc1 (stereo not drawn) [CDZ, calmidazolium chloride]",
    "inhibition at 100 µM / %": 100
  }
]

###

The compounds listed here are annotated with their IC50.
Molecular target: CaM/AC8-C2b interaction (Homo sapiens, UniProt P0DP23)
Assay: Fluorescence polarization
Type: binding
Settings: AC8-C2b pIC50, 0.01% Triton, FP, 0.01% Triton X-100
value-kind: IC50

[
  {
    "compound": "CCCCC(CC)CNC(=N)NC(=N)NCCCCCCNC(=N)NC(=N)NCC(CC)CCCC (stereo not drawn)",
    "value-reported": "5.89 µM"
  },
  {
    "compound": "Clc1ccc(C(c2ccc(Cl)cc2)n2cc[n+](CC(OCc3ccc(Cl)cc3Cl)c3ccc(Cl)cc3Cl)c2)cc1 (stereo not drawn) [CDZ, calmidazolium chloride]",
    "value-reported": "9.77 µM"
  },
  {
    "compound": "CCCCCCCCCCCCCCCC[N+](C)(C)CCN(Cc1ccc(OC)cc1)c1ncccn1 [thonzonium, Thonzonium bromide]",
    "value-reported": "12.6 µM"
  }
]

###

Target: AC1
Experiment: CaM-stimulated AC1 activity in membrane preparations
Assay type: biochemical
Settings: membranes of HEK293 cells stably expressing AC1, CaM-stimulated

[
  {
    "molecule": "CCCCC(CC)CNC(=N)NC(=N)NCCCCCCNC(=N)NC(=N)NCC(CC)CCCC (centres unmarked) [alexidine]",
    "AC1 pIC50": 5.24
  },
  {
    "molecule": "Clc1ccc(C(c2ccc(Cl)cc2)n2cc[n+](CC(OCc3ccc(Cl)cc3Cl)c3ccc(Cl)cc3Cl)c2)cc1 (centres unmarked) [CDZ, calmidazolium chloride]",
    "AC1 pIC50": 4.87
  },
  {
    "molecule": "CCCCCCCCOc1ccccc1C(=O)Nc1ccc(C(=O)OCC[N+](C)(CC)CC)cc1 [otilonium, otilonium bromide]",
    "AC1 pIC50": 4.58
  },
  {
    "molecule": "CCCCCCCCCCCC[N+](C)(C)CCOc1ccccc1 [domiphen, Domiphen bromide]",
    "AC1 pIC50": 4.55
  },
  {
    "molecule": "CCCCCCCCCCCCCCCC[N+](C)(C)CCN(Cc1ccc(OC)cc1)c1ncccn1 [thonzonium, Thonzonium bromide]",
    "AC1 pIC50": 4.20
  }
]

###

Biological target: CaM/AC8-Nt interaction (Homo sapiens)
Experiment: Fluorescence polarization
Type: binding
Conditions: AC8-Nt pIC50, 0% Triton, FP, 316 nM GST-CaM, 100 nM Cy5-AC8-Nt, no Triton X-100
Here the recorded IC50 is given for each entry.
value-kind: IC50 (µM)

[
  {
    "compound": "CCCCCCCCCCCCCCCC[N+](C)(C)C [cetrimonium, cetrimonium bromide]",
    "value-reported": 11.5
  },
  {
    "compound": "CCCCCCCCOc1ccccc1C(=O)Nc1ccc(C(=O)OCC[N+](C)(CC)CC)cc1 [otilonium, otilonium bromide]",
    "value-reported": 16.6
  },
  {
    "compound": "CCCCCCCCCCCCCCCC[N+](C)(C)CCN(Cc1ccc(OC)cc1)c1ncccn1 [thonzonium, Thonzonium bromide]",
    "value-reported": 5.37
  },
  {
    "compound": "CCCCC(CC)CNC(=N)NC(=N)NCCCCCCNC(=N)NC(=N)NCC(CC)CCCC (centres unmarked)",
    "value-reported": 2.14
  },
  {
    "compound": "CCCCCCCCCCCC[N+](C)(C)CCOc1ccccc1 [domiphen, Domiphen bromide]",
    "value-reported": 14.5
  }
]

###

Assay: CytoTox-Fluor acute cytotoxicity assay
Assay type: cell-based
Conditions: human, HEK293T cells, pH 7.4
Overview of recorded viability at 30 min, 31.6 µM for various compounds

[
  {
    "compound": "CCCCCCCCOc1ccccc1C(=O)Nc1ccc(C(=O)OCC[N+](C)(CC)CC)cc1 [otilonium, otilonium bromide]",
    "viability at 30 min, 31.6 µM / %": 77
  },
  {
    "compound": "CCCCCCCCCCCC[N+](C)(C)CCOc1ccccc1 [domiphen, Domiphen bromide]",
    "viability at 30 min, 31.6 µM / %": 99
  },
  {
    "compound": "CCCCCCCCCCCCCCCC[N+](C)(C)C [cetrimonium, cetrimonium bromide]",
    "viability at 30 min, 31.6 µM / %": 89
  }
]
